# targetOrTestSystem: PAR2 (HT-29 cells, trypsin activation) (Homo sapiens)
# Construct: host or cells: HT-29 cells
# assayProcedure: Ca FLIPR TETRA assay, ANTAGONIST mode, stimulation with 3.1 U/mL trypsin
# Assay type: cell-based
# conditionDetails: HT-29 cells, antagonist mode, stimulation with 3.1 U/mL trypsin
# Description: Example 60: Protocol for Testing PAR2 Compounds in ANTAGONIST Mode Using the Ca FLIPR^TETRA Assay (384 Well) […] A first read was performed to determine whether the test compounds on their own can activate Ca2+ responses. The cells were incubated with the compounds for 30 min at r. t. and then read in ANTAGONIST mode in the same plate by stimulating with 6.2 uL of a fixed concentration of the activator: final concentrations: 8 μM SLIGKV, 1 U/mL Thrombin, 3.1 U/mL trypsin, or 0.6 μM UTP.
pIC50: −log10 of the molar value.
Response key: Condition met means pIC50 >= 7; Condition not met means pIC50 < 7.

{"compound": "CC(C)c1cc(-c2ccc(C(F)(F)F)c(F)c2)nn2cc(C(=O)N3CCN(C(=O)[C@H]4C[C@](O)(C(F)(F)F)C4)CC3(C)C)nc12", "classification": "Condition met"}
{"compound": "Cc1cc(C2=Nn3cc(C(=O)N4CCNC(=O)C4(C)C)nc3C(C(C)C)C2)ccc1F (stereo not shown)", "classification": "Condition not met"}
{"compound": "CC(C)(C)c1cc(-c2ccc(F)cc2)nn2cc(C(=O)N3CCNC(=O)C34CCCC4)nc12", "classification": "Condition met"}
{"compound": "CC(C)(C)c1cc(-c2ccc(F)cc2)nn2cc(C(=O)N3CCN(C(=O)C(C)(O)C(F)(F)F)CC3(C)C)nc12 (stereo not shown)", "classification": "Condition met"}
{"compound": "CC(C)c1cc(-c2ccc(C(F)(F)F)c(F)c2)nn2cc(C(=O)N3CCNC(=O)C3(C)C)nc12", "classification": "Condition met"}
{"compound": "CC(C)(O)c1cc(-c2ccc(F)cc2)nn2cc(C(=O)N3CCNC(=O)C3(C)C)nc12", "classification": "Condition not met"}

----------
Reported pIC50 values for the following compounds.
# targetOrTestSystem: PAR2 (HT-29 cells, trypsin activation) (Homo sapiens, UniProt P55085)
# Construct: host or cells: HT-29 cells
# assayProcedure: Ca FLIPR TETRA assay, ANTAGONIST mode, stimulation with 3.1 U/mL trypsin
# Format: cell-based
# conditionDetails: HT-29 cells, antagonist mode, stimulation with 3.1 U/mL trypsin
pIC50: −log10 of the molar value.

{"entrySmiles": "Cc1n[nH]c(C(=O)N2CCN(C(=O)c3cn4nc(-c5ccc(F)c(Cl)c5)cc(C(C)(C)C)c4n3)C(C)(C)C2)n1", "pIC50": 8.92}
{"entrySmiles": "CC(C)c1cc(-c2ccc(C(F)F)cc2)nn2cc(C(=O)N3CCN(C(=O)c4cn[nH]c4)CC3(C)C)nc12", "pIC50": 8.08}
{"entrySmiles": "CC(C)(C)c1cc(-c2ccc(F)cc2)nn2cc(C(=O)N3CCN(C(=O)c4ccn[nH]c4=O)CC3(C)C)nc12", "pIC50": 7.82}
{"entrySmiles": "CC(C)(C)c1cc(-c2ccc(F)cc2)nn2cc(C(=O)N3CCN(C4(CO)CC4)C(=O)C3(C)C)nc12", "pIC50": 7.90}
{"entrySmiles": "CC(C)c1cc(-c2ccc(F)c(Cl)c2)nn2cc(C(=O)N3CCN(C(=O)[C@H]4CC[C@H](C(=O)O)CC4)CC3(C)C)nc12", "pIC50": 6.99}
{"entrySmiles": "CC(C)(C)c1cc(-c2ccc(F)cc2)nn2cc(C(=O)N3CCN(C(=O)c4nc[nH]n4)CC3(C)C)nc12", "pIC50": 8.80}
{"entrySmiles": "Cc1nnc(C(=O)N2CCN(C(=O)c3cn4nc(-c5ccc(F)c(Cl)c5)cc(C(C)(C)C)c4n3)C(C)(C)C2)o1", "pIC50": 8.43}

----------
# targetOrTestSystem: PAR2 (HT-29 cells, SLIGKV activation) (Homo sapiens, UniProt P55085)
# Construct: host or cells: HT-29 cells
# Sequence (P55085 26-397): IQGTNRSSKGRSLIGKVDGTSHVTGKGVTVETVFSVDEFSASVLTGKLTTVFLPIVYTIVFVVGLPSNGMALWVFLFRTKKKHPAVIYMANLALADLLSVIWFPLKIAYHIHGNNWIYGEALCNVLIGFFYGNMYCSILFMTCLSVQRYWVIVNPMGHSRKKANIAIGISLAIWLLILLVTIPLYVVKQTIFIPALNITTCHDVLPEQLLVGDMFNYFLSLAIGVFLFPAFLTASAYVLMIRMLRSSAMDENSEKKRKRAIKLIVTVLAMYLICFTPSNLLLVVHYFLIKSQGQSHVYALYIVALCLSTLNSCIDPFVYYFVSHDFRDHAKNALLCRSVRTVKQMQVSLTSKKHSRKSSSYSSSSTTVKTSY
# assayProcedure: Ca FLIPR TETRA assay, ANTAGONIST mode, stimulation with 8 μM SLIGKV
# Type: cell-based
# conditionDetails: HT-29 cells, stimulation with 8 μM SLIGKV
pIC50: −log10 of the molar value.

{"molecule": "CC(C)c1cc(-c2ccc(F)cc2)nn2cc(C(=O)N3CCN(C(=O)[C@@H](O)C(C)C)[C@@H](C)C3)nc12 [Compound I-110]", "pIC50": 6.96}
{"molecule": "CC(C)c1cc(-c2ccc(F)cc2)nn2cc(C(=O)N3CCN(C(=O)CCN4CCCCC4=O)[C@@H](C)C3)nc12 [Compound I-137]", "pIC50": 7.38}
{"molecule": "CC(C)(O)C(=O)N1CCN(C(=O)c2cn3nc(-c4ccc(F)cc4)cc(C4CC4)c3n2)C(C)(C)C1 [Compound I-20]", "pIC50": 6.55}
{"molecule": "CC(C)c1cc(-c2ccc(F)cc2)nn2cc(C(=O)N3CCN(C(=O)CCn4cccn4)[C@@H](C)C3)nc12 [Compound I-135]", "pIC50": 7.66}
{"molecule": "CCC(C)(O)CC(=O)N1CCN(C(=O)c2cn3nc(-c4ccc(F)cc4)cc(C(C)C)c3n2)C[C@@H]1C (some centres unmarked) [Compound I-146]", "pIC50": 7.80}
{"molecule": "CC1(c2cc(-c3ccc(F)cc3)nn3cc(C(=O)N4CCN(C(=O)C5(O)CCOCC5)CC4(C)C)nc23)CC1 [Compound I-31]", "pIC50": 7.51}
{"molecule": "CC(C)c1cc(-c2ccc(F)cc2)nn2cc(C(=O)N3CCN(C(=O)C4(NC(=O)OC(C)(C)C)CCC4)[C@@H](C)C3)nc12 [Compound I-149]", "pIC50": 7.52}
{"molecule": "CC(C)(C)OC(=O)NC1CCN(C(=O)c2cn3nc(-c4ccc(F)cc4)cc(C(F)(F)F)c3n2)CC1 [Compound I-74]", "pIC50": 6.32}
{"molecule": "C[C@H]1CN(C(=O)c2cn3nc(-c4ccc(F)cc4)cc(C(F)(F)F)c3n2)CCN1C(=O)C(O)c1cccnc1 (some centres unmarked) [Compound I-100]", "pIC50": 6.70}
{"molecule": "CCc1cc(-c2ccc(F)cc2)nn2cc(C(=O)N3CCN(C(=O)[C@H](O)CC(C)(C)C)[C@@H](C)C3)nc12 [Compound I-104]", "pIC50": 8.70}
{"molecule": "CC1(C)CN(C(=O)C2(O)CCC2)CCN1C(=O)c1cn2nc(-c3ccc(F)cc3)cc(C3CC3)c2n1 [Compound I-21]", "pIC50": 7.72}
{"molecule": "O=C(c1cn2nc(-c3ccc(F)cc3)cc(C(F)(F)F)c2n1)N1CCCCC1c1nccs1 (centres unmarked) [Compound I-73]", "pIC50": 6.13}
{"molecule": "CC(C)c1cc(-c2ccc(F)cc2)nn2cc(C(=O)N3CCN(C(=O)[C@H](O)CC4CC4)[C@@H](C)C3)nc12 [Compound I-171]", "pIC50": 8.52}
{"molecule": "CCc1cc(-c2ccc(F)cc2)nn2cc(C(=O)N3CCN(C(=O)OC(C)(C)C)CC3(C)C)nc12 [Compound I-4]", "pIC50": 8.52}

----------
# targetOrTestSystem: PAR2 (HT-29 cells, trypsin activation) (Homo sapiens)
# Construct: host or cells: HT-29 cells
# Sequence (P55085 26-397): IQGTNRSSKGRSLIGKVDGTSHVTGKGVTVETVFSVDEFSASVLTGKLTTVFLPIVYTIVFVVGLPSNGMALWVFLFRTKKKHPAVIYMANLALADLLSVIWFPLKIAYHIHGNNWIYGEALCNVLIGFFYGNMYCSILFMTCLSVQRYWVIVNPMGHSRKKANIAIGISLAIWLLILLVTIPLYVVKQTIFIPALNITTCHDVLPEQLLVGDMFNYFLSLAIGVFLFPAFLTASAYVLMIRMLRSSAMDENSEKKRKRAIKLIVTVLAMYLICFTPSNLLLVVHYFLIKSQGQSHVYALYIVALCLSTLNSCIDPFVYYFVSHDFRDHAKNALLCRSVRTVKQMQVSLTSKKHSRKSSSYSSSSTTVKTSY
# assayProcedure: Ca FLIPR TETRA assay, ANTAGONIST mode, stimulation with 3.1 U/mL trypsin
# Assay type: cell-based
# conditionDetails: HT-29 cells, stimulation with 3.1 U/mL trypsin
API: label(entry) gives yes (1) if the entry's IC50 is strictly smaller than 300 nM; on equality or larger values it gives no (0).

{"compound": "C[C@H]1CN(C(=O)c2cn3nc(-c4ccc(F)cc4)cc(C(F)(F)F)c3n2)CCN1C(=O)OCc1ccccc1 [Compound I-46]", "classification": "yes (1)"}
{"compound": "Cc1cc(C)n(CCC(=O)N2CCN(C(=O)c3cn4nc(-c5ccc(F)cc5)cc(C(C)C)c4n3)C[C@@H]2C)n1 [Compound I-134]", "classification": "yes (1)"}
{"compound": "CC(C)c1cc(-c2ccc(F)cc2)nn2cc(C(=O)N3CCN(C(=O)[C@H](O)CC4CC4)[C@@H](C)C3)nc12 [Compound I-171]", "classification": "yes (1)"}
{"compound": "C[C@H]1CN(C(=O)c2cn3nc(-c4ccc(F)cc4)cc(C(F)(F)F)c3n2)CCN1C(=O)OC(C)(C)C [Compound I-1]", "classification": "no (0)"}
{"compound": "O=C(c1cn2nc(-c3ccc(F)cc3)cc(C(F)(F)F)c2n1)N1CCCCC1c1ccccc1 (stereo not shown) [Compound I-71]", "classification": "no (0)"}
{"compound": "CC1CN(C(=O)c2cn3nc(-c4ccc(F)cc4)cc(C(F)(F)F)c3n2)CCC1O (stereo not shown) [Compound I-68]", "classification": "no (0)"}
{"compound": "O=C(c1cn2nc(-c3ccc(F)cc3)cc(C(F)(F)F)c2n1)N1CCN(CCn2ccnc2)CC1 [Compound I-56]", "classification": "no (0)"}

Ref: patent US20190119282A1
